B1: CCND2 (parent)
chain: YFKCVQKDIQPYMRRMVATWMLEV

variants of: B1; assay: protein stability index of a GFP-peptide fusion (GPS, HEK-293T) (PSI 1-6); higher = more stable; details: c terminus: a fixed tail appended;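 further: lentivirally expressed fusions sorted by FACS into six bins by GFP to DsRed ratio, PSI derived from sequencing read proportions per bin multiplied by bin number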
readout: protein stability index

variant_notation: M21N
numeric_result: 2.54

variant_notation: K7G
numeric_result: 2.97

variant_notation: V5E
numeric_result: 2.58

variant_notation: F2A
numeric_result: 2.97

variant_notation: K7L
numeric_result: 2.56

variant_notation: R15F
numeric_result: 4.08

variant_notation: E23Y
numeric_result: 3.34

variant_notation: Y1M
numeric_result: 2.11

variant_notation: I9M
numeric_result: 3.79

variant_notation: C4V
numeric_result: 3.69

variant_notation: Y1Q
numeric_result: 3.55

variant_notation: F2N
numeric_result: 2.66

variant_notation: L22W
numeric_result: 2.6

variant_notation: Y12I
numeric_result: 2.54

variant_notation: Q6K
numeric_result: 3.15

variant_notation: V24A
numeric_result: 2.41

variant_notation: Q6F
numeric_result: 2.07

variant_notation: M21A
numeric_result: 1.67

variant_notation: Y12Q
numeric_result: 3.19

variant_notation: M13K
numeric_result: 3.64

variant_notation: M16D
numeric_result: 2.09

variant_notation: V17P
numeric_result: 2.44
